Hi there, I'd appreciate the recorded growth for every entry that follows.
# Test system: NCI-H226 lung
# METHOD_SUMMARY: NCI-60 one-dose screen, 48 h (100 = growth as untreated, 0 = no growth, -100 = all killed)
# EXPERIMENTAL_CONDITIONS: 10 µM
About 83,000 compounds went through this panel and 20% of them were active in at least one assay; those are over-represented in the sample as a whole.
Answers are plain numbers, in %.

Check out these entries, answers already filled in.
| COMPOUND | ENDPOINT_UNIT | growth |
| --- | --- | --- |
| COc1ccc(-c2c3c(N)c4c(nc3nc3c2c(C)nn3-c2ccccc2)CCCCC4)cc1 | % | 99.4 |
| Cn1c2ccc(Cl)cc2c2nn(C(=O)c3ccccc3)c(=O)nc21 | % | 93.7 |
| COC1(OC)C2(Cl)C=C(c3ccccc3)C1(Cl)C(Cl)=C2Cl (stereo not given) | % | 102 |
| Cc1nn(-c2ccccc2)c2nc3nc4c(c(N)c3c(-c3ccc(Cl)cc3)c12)CCC4 | % | 94.1 |
| FC(F)(F)c1cc(CNc2ncc(Br)c(Cl)n2)cc(C(F)(F)F)c1 | % | 90.3 |

Could I get growth for every one of these entries?
1. NC(=O)c1cc(Cl)ccc1NC(=O)COc1ccccc1
2. Brc1ccc(Br)nn1
3. COc1cc(/C=C/c2cc(/C=C/c3ccc(O)c(OC)c3)n(-c3ccccc3)n2)ccc1O
4. CCCCCCCCCCCCCCNc1nc(CO)ncc1-c1ccc(C(F)(F)F)cc1

## Result
1. 90.5
2. -26.8
3. -8.19
4. 101

## Task Please report the measured growth for COc1ccc(-n2ncc3c4nc(OC)c(S(=O)(=O)c5ccccc5)cc4ccc32)cc1
## Result 45.3

* * *

# Test system: UO-31 renal
# METHOD_SUMMARY: NCI-60 one-dose screen, 48 h
# EXPERIMENTAL_CONDITIONS: 10 µM unless noted
This is part of a sample that, as a whole, favours compounds with a hit. Of some 83,000 tested, about 20% had one in any assay. Activity calls are given as the source filed them. How the source made its calls: active means growth percent below 10; inactive means the rest.
Reply using exactly one outcome from y = active, n = inactive

As a guide, the following entries are already answered.
| MOLECULE | TARGET_OF_ASSAY | CLASSIFICATION |
| --- | --- | --- |
| CC1SC(c2ccc(Cl)cc2)N(CCc2cccs2)C1=O (stereo unspecified) | UO-31 renal | y |
| COc1cccc(OC)c1OC(=O)c1ccccc1 | UO-31 renal | n |
| COc1ccc(Sc2ccc3[nH]c(=O)nc(N)c3c2)cc1 | UO-31 renal | n |
| Cc1nc(-c2ccccc2)cc2c(O)c(C(=O)N/N=C/Cc3ccccc3)[nH]c(=O)c12 | UO-31 renal | n |
| COc1ccc(/C=N/NC(=O)c2cnn3c2NC(c2ccccc2)C3)cc1OC1CCCC1 (stereo unspecified) | UO-31 renal | n |

Then there is this molecule:
## Task Hey, what did the test say about Cc1ccc(NS(=O)(=O)c2ccc(-c3cnc(C4CC4)o3)cc2)cc1 ?
## Result n

* * *

# Tested on: HS 578T breast
# METHOD_SUMMARY: NCI-60 one-dose screen, 48 h
# EXPERIMENTAL_CONDITIONS: 10 µM unless noted
About 83,000 compounds went through this panel and 20% of them were active in at least one assay; those are over-represented in the sample as a whole. Active and inactive are the calls of the source. How the source made its calls: active means growth percent below 10; inactive means the rest.
Respond with a class label; see Y (active), N (inactive)

## Task Can you look up the reported call for Cc1ccc2nc(NC(=O)CSC(=S)N3CCN(C)CC3)sc2c1 for me?
## Result N

## Task Any idea what this test logged for COc1ccc(C2OCC(C)(C)CO2)cc1OC ?
## Result N

## Task Hi team, can someone confirm the assay call for O=c1oc2ccccc2cc1-c1csc(N/N=C/c2cc3ccccc3nc2Cl)n1 ?
## Result N
